# assay-details: Amount of fragrance ingredients retained on paper blotter after evaporation (ethanol extraction, GC-MS)
# Type: physicochemical
# test-settings: Table 5; fragrance TAK in EdT1; 15 min; 32°C
Recorded measurements of amount of fragrance ingredient retained on blotter (percentage of the initial amount), one per entry
measured-endpoint: amount of fragrance ingredient retained on blotter (percentage of the initial amount) (%)

- compound: "CCCCCCOC(C)=O [Hexyl acetate, Hexyl Acetate]"
  measure-unit: "%"
  recorded-value: 13
- compound: "C=C(C)[C@H]1CC=C(C)CC1"
  measure-unit: "%"
  recorded-value: 1
- compound: "C=CC(C)(O)CCC=C(C)C (stereo not drawn)"
  measure-unit: "%"
  recorded-value: 57
